# Test system: SN12C renal
# assay notes: NCI tumour cell line growth inhibition, 48 h
measure name: TGI

Record "O=S(=O)([O-])c1ccc(N=Cc2ccccc2[O-])cc1.O=S(=O)([O-])c1ccc(N=Cc2ccccc2[O-])cc1.[Co+2]" , field TGI: > 100 µM

Record CCC(=O)N1C(=O)OCC1C(C)C (stereo unspecified) , field TGI: > 100 µM

Record "COc1ccc2c(c1)c(-c1nc(-c3c[nH]c4ncccc34)cs1)cn2CCCN1CCCCC1" , field TGI: 3.36 µM

Record "O=C(CCl)NCCNc1nccc(Nc2ccc(S(=O)(=O)Nc3ccccn3)cc2)n1" , field TGI: 11.1 µM

Record "Cc1cccc(-n2c(N)c(-c3nc4ccccc4[nH]3)sc2=S)c1" , field TGI: 86.9 µM

Record "O=C1/C=C/[C@@H](O)[C@@H]2C[C@@H](O)C[C@H]2/C=C/CCC[C@H](CCc2cccc3ccccc23)O1" , field TGI: 11.5 µM

Record "O=C/C1=C/C2=Cc3ccccc3C=C(/C=C(/C=O)C1)C2" , field TGI: > 100 µM

Record "C[C@]12CCC(=O)C(OC(=O)c3ccc([N+](=O)[O-])cc3)=C1CCC2=O" , field TGI: > 100 µM

Record "NCCSc1cc(O)c2c(c1N)C(=O)c1ccccc1C2=O" , field TGI: > 100 µM

Record N#CC(/C(CCC(=O)Nc1ccc(Cl)cc1)=N/NC(=O)c1cc2ccccc2cc1O)c1ccccc1 (stereo unspecified) , field TGI: > 100 µM

Record CCCCCCCCCCCCOP(=O)(O)OP(=O)(O)OCC1OC(n2ccc(N)nc2=O)CC1O (stereo unspecified) , field TGI: > 100 µM

====

# Tested on: MOLT-4 leukemia
# assay notes: NCI tumour cell line growth inhibition, 48 h
I'd be grateful if you could share measured TGI for these entries.

Record "Cn1c(=O)c(Oc2ccc(F)cc2F)cc2cnc(NC(C)(C)CO)nc21" , field TGI: > 25 µM

Record NC(N)=NCC1CCCCCCN1 (stereo unspecified) , field TGI: > 100 µM

Record "O=C(O)C[C@@H](Cl)[C@H](NC(=O)OCc1ccccc1)C(=O)O" , field TGI: > 100 µM

Record "CCCCCCCCCCCCCCCCCc1nccn1CCOCCO" , field TGI: 12.3 µg/mL

Record "O=C(Nc1cccc2c1C(=O)c1c(NC(=O)c3ccccc3)ccc(Nc3cccc4c3C(=O)c3ccccc3C4=O)c1C2=O)c1ccccc1" , field TGI: > 100 µM

Record COc1cc2c(c(OC)c1OC)-c1ccc(SC)c(=O)cc1C(CC(=O)Oc1cccc([N+](=O)[O-])c1)C2 (stereo unspecified) , field TGI: > 100 µM

Record "CSc1nc(C)cc(Nc2ccc(O)c(CN3CCOCC3)c2)n1" , field TGI: > 100 µM

Record "CCOC(=O)c1cc(-n2nnc3ccccc32)cn1C" , field TGI: > 10 µM

Record COC(=O)c1cc(C(=O)OC)c(CC(=O)C(=O)NC2C3CC4CC(C3)CC2C4)nc1CC(=O)C(=O)NC1C2CC3CC(C2)CC1C3 (stereo unspecified) , field TGI: > 100 µM

Record COc1cc(C2CC(c3cccc(Nc4ccnc5cc(Cl)ccc45)c3)=NN2c2ccc(Cl)cc2)cc(OC)c1OC (stereo unspecified) , field TGI: > 100 µM

Record "CC(=O)O[C@H]([C@H](OC(C)=O)[C@H](C)OC(C)=O)[C@@H](/C=C/[C@@H]1CC=CC(=O)O1)OC(C)=O" , field TGI: > 100 µM

Record "CCN1CCC(Nc2ccnc3cc(Cl)ccc23)CC1" , field TGI: > 100 µM

Record Cc1[nH]c(=O)[nH]c(=O)c1/C=C/C(=O)O (tested in a mixture with another compound) , field TGI: > 625 µM

Record N#CC(N=Nc1ccccc1C(=O)O)C(N)=O (stereo unspecified) , field TGI: > 100 µM

Record COC(=O)C1CCC(=O)N1C(c1cc(OC)c(OC)c(OC)c1)c1cc(OC)c(OC)c(OC)c1 (stereo unspecified) , field TGI: > 100 µM

Record N#CC1(C#N)NC(c2ccccc2)C(C#N)(C#N)NC1c1ccccc1 (stereo unspecified) , field TGI: > 100 µM

Record "CCOC(=O)C(=O)Nc1nc2c(OCC)cccc2s1" , field TGI: > 100 µM

Record "O=C(O)/C(Cl)=C(\Cl)C(=O)c1ccccc1" , field TGI: > 100 µM

Record "COc1cc(CSc2ccc(O)cc2)cc(OC)c1OC" , field TGI: > 100 µM

Record "Cc1nc2c(c(N3CCCc4ccccc43)n1)CCC2" , field TGI: 3.07 µM

Record "CN(C)CCN1C(=O)c2cccc3cc([N+](=O)[O-])cc(c23)C1=O" , field TGI: 2.04 µM

====

# System: SK-MEL-2 melanoma
# assay notes: NCI tumour cell line growth inhibition, 48 h
measure name: TGI

Record N#CC(C(=O)C(=O)Nc1ccccc1)c1ccccc1 (stereo unspecified) , field TGI: > 100 µM

Record COC1CCON1C(=O)c1ccccc1 (stereo unspecified) , field TGI: > 10 µM

Record "COC(=O)c1ccccc1N(C(=O)c1ccccc1)c1ccccc1C" , field TGI: > 100 µM

Record "COC(OC)c1cc2c(cc1C=O)OCO2" , field TGI: > 100 µM

Record "O=c1[nH]nc(NCc2ccccc2)c2nnn(Cc3ccccc3)c12" , field TGI: > 100 µM

Record "CO[C@@H]1C=C[C@@]23c4cc5c(cc4CN(C[C@@H]2O)[C@H]3C1)OCO5" , field TGI: 49.2 µM

Record "O=C(Nc1cccc2c1C(=O)c1c(NC(=O)c3ccccc3)ccc(Nc3cccc4c3C(=O)c3ccccc3C4=O)c1C2=O)c1ccccc1" , field TGI: > 100 µM

Record "COc1ccc(C=Nc2c(C(=O)Nc3cccc(Cl)c3C)sc3nc(C)c(C(=O)/C=C/c4ccc(OC)cc4)cc23)cc1" , field TGI: 36.1 µM

Record N#CC12CCC1C1CCCCC12N1CCSCC1 (stereo unspecified) , field TGI: > 100 µM

Record N#CC(/C(CCC(=O)Nc1ccc(Cl)cc1)=N/NC(=O)c1cc2ccccc2cc1O)c1ccccc1 (stereo unspecified) , field TGI: 61.2 µM

Record "COc1ccc(C#Cc2ccc(=O)oc2-c2cc(OC)c(OC)c(OC)c2)cc1O" , field TGI: > 100 µM

Record "S=C(N/N=C(\c1ccccc1)c1ccccn1)NC1CCCCC1" , field TGI: > 100 µM

Record "O=C1C(=O)N(c2ccc(Cl)cc2)C(=O)C(=O)C1c1nc2ccccc2o1" , field TGI: > 100 µM

Record Oc1ccc([C@H]2c3c(O)cc(O)cc3C3c4c(cc(O)cc4[C@@H]2[C@H]2c4cc(O)cc5c4C(c4cc(O)cc(O)c4[C@@H]2c2ccc(O)cc2)[C@@H](c2ccc(O)cc2)O5)O[C@@H]3c2ccc(O)cc2)cc1 (stereo partly specified) , field TGI: > 100 µM

Record "Cc1c(O)c(N=Nc2nc3ccccc3s2)c2ccccc2c1O" , field TGI: 43.2 µM

Record CCC(C)C(N)C(=O)NC(CC(N)=O)C(=O)NC(CC(C)C)C(=O)NC(CCCCN)C(=O)NC(C)C(=O)NC(CC(C)C)C(=O)NC(C)C(=O)NC(C)C(=O)NC(CC(C)C)C(=O)NC(C)C(=O)NC(CCCCN)C(=O)NC(CCCCN)C(=O)NC(C(=O)NC(CC(C)C)C(N)=O)C(C)CC (stereo unspecified) , field TGI: 36.8 µM

Record "CC(C)N1CCN(c2ccncc2S(=O)(=O)N2CCCCC2)CC1" , field TGI: > 100 µM

Record "CC(=O)/C(=C/c1ccccc1)C(=O)CC(C)C" , field TGI: 60.7 µM

Record Clc1cc2nn(C3CCCCO3)nc2cc1Cl (stereo unspecified) , field TGI: > 100 µM

Record "C=C1C(=O)O[C@H]2[C@H]1CC/C(COC(=O)NCc1c[nH]c3ccccc13)=C\CC[C@@]1(C)O[C@@H]21" , field TGI: 24.5 µM

Record N#CC(N=Nc1ccccc1C(=O)O)C(N)=O (stereo unspecified) , field TGI: > 100 µM

====

I'd be grateful if you could share measured TGI for these entries.
# Test system: MOLT-4 leukemia
# assay notes: NCI tumour cell line growth inhibition, 48 h

Record COc1ccccc1Cc1ccc(C2C=CC3(CC(=O)C=C3C)C(=O)C2)o1 (configuration not stated) , field TGI: 34.1 µM

Record "Cc1cccc(Br)[n+]1[O-]" , field TGI: > 100 µM

Record OC1c2ccccc2CCC1CN1CCN(CCOC(c2ccc(F)cc2)c2ccc(F)cc2)CC1 (configuration not stated) , field TGI: > 100 µM

Record "O=C(Nc1ccc(Cc2ccccc2)cc1)Nc1nn(C(=O)Nc2ccc(Cc3ccccc3)cc2)c2ccccc12" , field TGI: > 100 µM

Record "COc1cc2c(c(OC)c1OC)C(=O)[C@@H]1[C@H]2N1C(=O)NCCCl" , field TGI: > 100 µM

Record "CC(C)C(=O)N1Cc2cc(Cl)cc(Cl)c2OC(=O)c2ccccc21" , field TGI: 62 µM

Record "CC(=O)c1[nH]c(NC(C)C)c(C(=S)Nc2ccccc2)c1N" , field TGI: > 100 µM

Record "COCCN(CCNC(=O)c1cccc2c(N)c3cccc(C)c3nc12)CCOC" , field TGI: 2.38 µM

Record "COc1cc(OC)c(C(=O)c2cccs2)cc1N" , field TGI: > 100 µM

Record OCC1COc2cc(Cl)c(Cl)cc2O1 (configuration not stated) , field TGI: > 10 µM

Record "Cc1c[n+]2c3ccccc3c3ccccc3c2s1" , field TGI: 13.4 µM

Record CSC1(C)C(=O)Nc2c(OCc3ccccc3)cc([N+](=O)[O-])cc21 (configuration not stated) , field TGI: > 100 µM

Record "CCNC(=O)c1cc(Cl)ccc1NC(=O)C12CC3CC(CC(C3)C1)C2" , field TGI: > 100 µM

Record "COc1cccc(/C=N/NC(=O)CSCC(=O)N/N=C/c2cccc(OC)c2OC)c1OC" , field TGI: > 100 µM

Record COc1cc(C2C3=C(COC3=O)Oc3cc4c(cc32)OCO4)ccc1O (configuration not stated) , field TGI: > 100 µM

Record "CCCNC(=S)N/N=C(\C)c1ccc(S(=O)(=O)N(C)c2ccccc2)cc1" , field TGI: > 100 µM

Record "CC1=CC(C)=NN=C(N)N1S(=O)(=O)c1cc(C)c(Cl)cc1SCc1ccccc1" , field TGI: > 100 µM

The reported measurements were obtained from PubChem BioAssay (NCI).
